# Test system: DFO2036
# Test Summary: qHTS profiling for inhibitors of Plasmodium falciparum proliferation (AID 504749); note: nearly all actives have a fitted effect of over 60% in size
# Condition Details: P. falciparum in erythrocytes, SYBR Green DNA, 72 h; series mostly up to 28.7 µM
# Method: NIH National Institute of Allergy and Infectious Diseases [NIAID] NIH Chemical Genomics Center [NCGC] […] Because mature erythrocytes lack DNA, only Plasmodium-derived DNA is detected. NCGC Assay Protocol Summary: The SYBR Green viability assay was adapted from a method described previously (Plouffe et al., 2008). […] The following morning, fluorescence intensity at 485(14) nm excitation and 535(25) nm emission wavelengths was measured on an EnVision (Perkin Elmer) plate reader. […]
Results filed as inconclusive are left out. Calls of active or inactive are those of the source. Calls come from the whole dose curve; as a rule, active = well fitted inhibition curve with a large enough effect; inconclusive = small, poorly fitted or top-dose-only effect; inactive = flat fitted curve, though single readings scatter.
Your answer must be one of the following: active, inactive

{"Molecule": "NC(=O)NC(CCC(=O)O)C(=O)O (centres undefined)", "System": "DFO2036", "Label": "inactive"}
{"Molecule": "C[C@]12CC[C@@H]3c4ccc(O)cc4CC[C@H]3[C@@H]1C[C@H](O)C2O (some centres undefined)", "System": "DFO2036", "Label": "inactive"}
{"Molecule": "CC1=C[C@@H](O)CC(C)(C)[C@@H]1/C=C/C(C)=C/C=C/C(C)=C/C=C/C=C(C)/C=C/C=C(C)/C=C/C1=C(C)C[C@H](O)CC1(C)C", "System": "DFO2036", "Label": "inactive"}
{"Molecule": "Cc1cnc(C(=O)O)cn1", "System": "DFO2036", "Label": "inactive"}
{"Molecule": "CCCCC(=O)OCC(=O)[C@]1(O)Cc2c(O)c3c(c(O)c2[C@H](OC2CC(NC(=O)C(F)(F)F)C(O)C(C)O2)C1)C(=O)c1c(OC)cccc1C3=O (some centres undefined)", "System": "DFO2036", "Label": "active"}
{"Molecule": "CO/N=C(/C(=O)N[C@@H]1C(=O)N2C(C(=O)O)=C(CSc3cnns3)CS[C@H]12)c1csc(N)n1", "System": "DFO2036", "Label": "inactive"}
{"Molecule": "CC1(C(=O)O)CCC2(C)CCC3(C)C(=CC(=O)C4C5(C)CCC(O)C(C)(C)C5CCC43C)C2C1 (centres undefined)", "System": "DFO2036", "Label": "inactive"}
{"Molecule": "CCOc1ccccc1O[C@@H](c1ccccc1)[C@@H]1CNCCO1", "System": "DFO2036", "Label": "inactive"}

Okay, now this molecule:
Could you kindly confirm the outcome this assay logged for CNC1CCc2cc(OC)c(OC)c(OC)c2-c2ccc(OC)c(=O)cc21 (centres undefined) ?
inactive

###

# Test system: CP201
# Test Summary: qHTS profiling for inhibitors of Plasmodium falciparum proliferation (AID 504749); note: nearly all actives have a fitted effect of over 60% in size
# Condition Details: P. falciparum in erythrocytes, SYBR Green DNA, 72 h; series mostly up to 28.7 µM
Results filed as inconclusive are left out. Calls of active or inactive are those of the source. Calls come from the whole dose curve; as a rule, active = well fitted inhibition curve with a large enough effect; inconclusive = small, poorly fitted or top-dose-only effect; inactive = flat fitted curve, though single readings scatter.
Outcomes you can answer with include only these: active, inactive

{"Compound": "C#C[C@]1(O)CC[C@H]2[C@H]3[C@H](CC[C@@]21C)C1=C(CC(=O)CC1)C[C@@H]3C", "Label": "inactive"}

// param item: C/C=C1/NN(CCCN2CCN(c3cccc(Cl)c3)CC2)C(=O)N1CCOc1ccccc1 ; yields the recorded call
inactive

Could you kindly confirm the outcome this assay logged for CO[C@H]1OC2O[C@@]3(C)CC[C@H]4[C@H](C)CC[C@@H]([C@H]1C)[C@@]24OO3 (stereo not given in full) ?
active

What is the recorded call for this compound in the test? COC1CC2CCC(C)[C@](O)(O2)C(=O)C(=O)N2CCCCC2C(=O)OC(C(C)CC2CCC(O)C(OC)C2)CC(=O)C(C)/C=C(/C)C(O)C(OC)C(=O)C(C)CC(C)C=CC=C/C=C\1C (stereo not given in full)
active

Identify the outcome logged in this assay for the compound shown: O=c1[nH]c(=O)n(C2C[C@H](O)[C@@H](CO)O2)cc1C(F)(F)F (stereo not given in full)
inactive

Assay result, entry C[C@H]1OC(OC2C(O)[C@@H](O)C(OC3C(O)[C@@H](O)C(O)O[C@@H]3CO)O[C@@H]2CO)[C@H](O)C(O)C1N[C@H]1C=C(CO)[C@@H](O)[C@H](O)C1O (stereo not given in full) — outcome?
inactive

Assay outcome for CCCCC(=O)O[C@]1(C(=O)CO)CCC2C3CCC4=CC(=O)CCC4(C)C3C(O)CC21C (stereo not given in full) : what was it?
inactive

Tell me the assay call for C[C@]12C=CC(=O)N[C@@H]1CC[C@@H]1C2CC[C@]2(C)C(C(=O)Nc3cc(C(F)(F)F)ccc3C(F)(F)F)CC[C@@H]12 (stereo not given in full) please.
inactive

I would be grateful if you could indicate the recorded call for Cc1ccccc1N1C(=O)c2cc(N)ccc2N/C1=C\F .
inactive

Please indicate how the test categorized CN1[C@@H]2CC[C@@H]1CC(OC(=O)[C@H](CO)c1ccccc1)C2 (stereo not given in full) .
inactive

Look up the recorded call for CCC(C(=O)O)C1OC(C(C)C(O)C(C)C(=O)C(CC)C2OC3(C=CC(O)C4(CCC(C)(C5CCC(O)(CC)C(C)O5)O4)O3)C(C)CC2C)C(C)CC1C (stereo not given) in this test.
active

Hi team, can someone confirm the assay call for Cc1cncc(C(=O)O)[n+]1[O-] ?
inactive

For Cc1ccc(Nc2ncccc2C(=O)O)cc1C , what call appears in the results of this test?
inactive

Field: outcome | Entry: CC1(Cn2ccnn2)[C@H](C(=O)O)N2C(=O)C[C@H]2S1(=O)=O (stereo not given in full)
inactive

Name the outcome recorded for CC(C)(C)C(=O)OCC(=O)C1CCC2C3CCC4=CC(=O)CCC4(C)C3CCC12C (stereo not given) in the assay.
inactive

###

# System: Cytochrome P450 1A2 (Homo sapiens) (UniProt P05177)
# Sequence (P05177 whole entry, looked up): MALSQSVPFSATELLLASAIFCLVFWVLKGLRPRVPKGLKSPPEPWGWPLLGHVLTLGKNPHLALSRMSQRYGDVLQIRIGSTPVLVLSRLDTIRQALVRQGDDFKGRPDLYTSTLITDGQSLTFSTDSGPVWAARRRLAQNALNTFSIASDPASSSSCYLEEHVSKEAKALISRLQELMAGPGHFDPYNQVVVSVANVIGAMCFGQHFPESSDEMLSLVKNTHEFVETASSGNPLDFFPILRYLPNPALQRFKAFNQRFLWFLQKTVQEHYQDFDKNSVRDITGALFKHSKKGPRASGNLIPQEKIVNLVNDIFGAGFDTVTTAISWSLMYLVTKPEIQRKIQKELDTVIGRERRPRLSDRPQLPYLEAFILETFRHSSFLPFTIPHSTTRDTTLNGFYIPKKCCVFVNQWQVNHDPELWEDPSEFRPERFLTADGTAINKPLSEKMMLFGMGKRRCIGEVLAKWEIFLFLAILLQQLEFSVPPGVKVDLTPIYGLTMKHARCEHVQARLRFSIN
# Test Summary: p450-cyp1a2 (AID 410)
# Condition Details: recombinant CYP1A2, luciferin-ME demethylation, luminescence; series mostly up to 57 µM
Inconclusive results are not listed. The source made the active and inactive calls. Calls come from the whole dose curve.
The reply should name one outcome from active, inactive

Completed entries (count: 5):
{"Compound": "Cc1c(-c2ccccc2)oc2cc(O)ccc2c1=O", "System": "Cytochrome P450 1A2 (Homo sapiens) (UniProt P05177)", "Label": "active"}
{"Compound": "COC(=O)c1ccc(C23CC2(C(NP(=O)(c2ccccc2)c2ccccc2)c2ccccc2)C3)cc1 (stereo not drawn)", "System": "Cytochrome P450 1A2 (Homo sapiens) (UniProt P05177)", "Label": "active"}
{"Compound": "CCC/C=C(\\CCC)C(NS(=O)(=O)c1ccc(Cl)cc1)c1ccc(C(=O)OC)cc1 (stereo not drawn)", "System": "Cytochrome P450 1A2 (Homo sapiens) (UniProt P05177)", "Label": "active"}
{"Compound": "CC[C@]1([C@H]2O[C@@H]([C@@H]3O[C@](O)(CO)[C@@H](C)C[C@H]3C)C[C@H]2C)CC[C@@H]([C@]2(C)CC[C@@]3(C[C@@H](O)[C@@H](C)[C@@H]([C@H](C)[C@H](OC)[C@H](C)C(=O)O)O3)O2)O1", "System": "Cytochrome P450 1A2 (Homo sapiens) (UniProt P05177)", "Label": "inactive"}
{"Compound": "COc1ccc2c(c1)[C@]1(C)CCC[C@](C)(CO)[C@@H]1CC2", "System": "Cytochrome P450 1A2 (Homo sapiens) (UniProt P05177)", "Label": "active"}

Could you please tell me the result logged for CCC/C=C(\CCC)C(NS(=O)(=O)CC12CCC(CC1=O)C2(C)C)c1ccc(C(=O)OC)cc1 (stereo not drawn) in this assay?
inactive

Hi, do you know how COC(=O)[C@@]1(Cc2ccc(F)cc2)[C@H]2c3cc(C(=O)N4CCCC4)n(Cc4ccc(C)c(F)c4F)c3C[C@H]2CN1C(=O)c1ccccc1 came out in this test?
inactive

I'd appreciate the recorded outcome for CCc1c2c(nc3c(C(C)C)cccc13)-c1cccc(=O)n1C2 from this test.
active

###

# System: DIV30
# Test Summary: qHTS profiling for inhibitors of Plasmodium falciparum proliferation (AID 504749); note: nearly all actives have a fitted effect of over 60% in size; note: potency is the fitted concentration of half-maximal effect
# Condition Details: P. falciparum in erythrocytes, SYBR Green DNA, 72 h; series mostly up to 28.7 µM
Results filed as inconclusive are left out. The source made the active and inactive calls. Calls follow the shape of the dose curve; as a rule, active = well fitted inhibition curve with a large enough effect; inconclusive = small, poorly fitted or top-dose-only effect; inactive = flat fitted curve, though single readings scatter.
Quantity Measured: Potency

Use these answered entries as a reference point.
{"Compound": "OCCN1CC(O)C(O)C(O)C1CO (configuration not stated)", "Potency": "inactive"}
{"Compound": "Cc1ccc(S(=O)(=O)NC(=O)NC(C)Cc2ccccc2)cc1 (configuration not stated)", "Potency": "inactive"}
{"Compound": "C[C@]12CC[C@@H]3c4ccc(O)cc4C[C@@H](CCCCCCCCCS(=O)CCCC(F)(F)C(F)(F)F)C3[C@@H]1CC[C@@H]2O (some centres not stated)", "Potency": "3.79 µM (active)"}
{"Compound": "CC1OC(OC2C(O)CC(OC3C(O)CC(OC4CCC5(C)C(CCC6C5CCC5(C)C(C7=CC(=O)OC7)CCC65O)C4)OC3C)OC2C)CC(O)C1O (configuration not stated)", "Potency": "inactive"}
{"Compound": "C/C1=C2/[N-]C(C(CC(N)=O)[C@@]2(C)CCC(=O)NCC(C)OP(=O)([O-])O[C@H]2[C@@H](O)[C@@H](n3cnc4cc(C)c(C)cc43)O[C@@H]2CO)[C@]2(C)N=C(/C(C)=C3N=C(/C=C4N=C1C(CCC(N)=O)C\\4(C)C)[C@@H](CCC(N)=O)[C@]\\3(C)CC(N)=O)[C@@H](CCC(N)=O)[C@]2(C)CC(N)=O.CC(=O)O.[Co] (some centres not stated)", "Potency": "inactive"}
{"Compound": "OC[C@@H](O)C(O[C@@H]1O[C@@H](CO)[C@H](O)[C@H](O)[C@H]1O)[C@H](O)[C@@H](O)CO (some centres not stated)", "Potency": "inactive"}

Quick one: Potency of CC1(C)OC[C@@H]2O[C@@]3(C(=O)O)OC(C)(C)O[C@@H]3[C@@H]2O1 ?
inactive

Taken from PubChem BioAssay (NCATS).
